# method.description: Plasma protein binding, filtration method, HPLC
# Type: in vitro ADME
# condition: male, SD; pooled rat plasma at 1 μg/ml
measure: fraction unbound at 1 μg/ml

Request the reported fraction unbound at 1 μg/ml associated with CC1(C)OC(c2ccc(S(N)(=O)=O)cc2)=C(c2cccc(F)c2)C1=O [Example 1]
< 0.01

----------
# system.under.test: Human CA II (Homo sapiens)
# Construct: purchased Sigma C-4936
# method.description: Inhibition assay for CA (Method B, esterase activity), CA II
# Format: biochemical
# condition: p-nitrophenylacetate hydrolysis, pH 7.6
Property: pIC50; scope: individual molecules
Note on pIC50: it is the negative log10 of concentration, concentration in mol/L.

Look up pIC50: CC1(C)OC(c2ccc(S(N)(=O)=O)cc2)=C(c2cccc(F)c2)C1=O
7.20

Another molecule: CC1(C)OC(c2ccc(S(N)(=O)=O)c(F)c2)=C(c2cc(F)ccc2F)C1=O
7.85

What do you get for CC1(C)OC(c2ccc(S(N)(=O)=O)c(F)c2)=C(c2cccc(F)c2)C1=O ?
7.57

----------
# system.under.test: Human CA I (Homo sapiens)
# Construct: purchased Sigma C-6165
# Sequence (P00915 whole entry): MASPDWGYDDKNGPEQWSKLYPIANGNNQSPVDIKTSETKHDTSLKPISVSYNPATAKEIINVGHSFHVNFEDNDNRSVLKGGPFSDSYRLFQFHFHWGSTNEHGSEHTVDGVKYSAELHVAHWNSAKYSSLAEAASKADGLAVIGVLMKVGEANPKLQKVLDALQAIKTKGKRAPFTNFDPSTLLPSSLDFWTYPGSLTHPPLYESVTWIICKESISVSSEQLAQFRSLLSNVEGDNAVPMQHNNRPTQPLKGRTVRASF
# method.description: Inhibition assay for CA (Method A), CA I
# Type: biochemical
# condition: CO2 hydration, phenol red
# Method: Compounds of Formula I were assessed for their inhibitory activities against human CAs according to methods described in a literature and a prior art. […] Inhibition Assay for CA (Method A): CA inhibitory activities by COX-2 inhibitors of this invention were assessed by a previously reported method. […] Then the interval was measured from the initiation of the reaction to the point of the color change of the solution from purple to yellow. […]
measure: pIC50
Give only the number. pIC50 is defined as minus log10 of concentration in molar units.

1) CC1(C)OC(c2ccc(S(N)(=O)=O)cc2F)=C(c2cc(F)cc(F)c2)C1=O | 5.33

Lab note: need pIC50 with Human CA I (Homo sapiens) for entry CC1(C)OC(c2ccc(S(N)(=O)=O)c(F)c2)=C(c2ccc(F)c(F)c2)C1=O , please look it up.
5.30

Then this molecule: Cc1cc(C2=C(c3cccc(F)c3)C(=O)C(C)(C)O2)ccc1S(N)(=O)=O
5.04

Would you mind doing CC1(C)OC(c2ccc(S(N)(=O)=O)c(F)c2)=C(c2cccc(F)c2)C1=O as well?
5.77

Repeat with CC1(C)OC(c2ccc(S(N)(=O)=O)cc2)=C(c2cc(F)ccc2F)C1=O
5.49

Again, but for CC1(C)OC(c2ccc(S(N)(=O)=O)c(F)c2)=C(c2cc(F)ccc2F)C1=O
5.89

What do you have for CC1(C)OC(c2ccc(S(N)(=O)=O)c(F)c2)=C(c2cc(F)cc(F)c2)C1=O ?
5.47

Now give it for CC1(C)OC(c2ccc(S(N)(=O)=O)cc2)=C(c2cccc(F)c2)C1=O too.
5.52

Field entry: CC1(C)OC(c2ccc(S(N)(=O)=O)cc2F)=C(c2ccc(F)cc2)C1=O
5.72

----------
# method.description: Pharmacokinetic studies in rats
# Format: in vivo
# condition: rat, plasma; oral 1 mg/kg, male SD rats; read-out: plasma Cmax
measure: Cmax
Provide a numeric answer, followed by its unit.

Fill blank: measured Cmax of the compound CC1(C)OC(c2ccc(S(N)(=O)=O)cc2)=C(c2cccc(F)c2)C1=O is ____.
0.082 µg/mL
